Quick list: IC50 per entry.
Target: cholinesterase in homogenized rat brain (Rattus norvegicus)
Sequence (P37136 32-614): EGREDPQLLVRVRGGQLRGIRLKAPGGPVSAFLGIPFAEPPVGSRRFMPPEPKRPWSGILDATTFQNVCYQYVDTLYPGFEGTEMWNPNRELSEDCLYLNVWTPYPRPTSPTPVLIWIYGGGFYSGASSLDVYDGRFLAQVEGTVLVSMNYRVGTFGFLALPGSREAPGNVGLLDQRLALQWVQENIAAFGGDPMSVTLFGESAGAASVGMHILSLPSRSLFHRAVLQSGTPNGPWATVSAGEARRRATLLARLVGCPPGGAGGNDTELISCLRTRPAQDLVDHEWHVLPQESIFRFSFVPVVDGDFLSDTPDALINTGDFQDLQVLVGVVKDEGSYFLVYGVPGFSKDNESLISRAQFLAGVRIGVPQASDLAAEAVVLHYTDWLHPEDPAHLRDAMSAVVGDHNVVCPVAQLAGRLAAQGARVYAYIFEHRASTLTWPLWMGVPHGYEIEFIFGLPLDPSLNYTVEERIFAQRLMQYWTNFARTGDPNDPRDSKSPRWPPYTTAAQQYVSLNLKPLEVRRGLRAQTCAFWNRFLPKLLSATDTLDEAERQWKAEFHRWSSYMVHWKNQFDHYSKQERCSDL
Settings: read-out: Mean IC50, cerebral cholinesterase inhibition; mean of N independent experiments, rat brain homogenate
Answer as a quantity: numeral, then unit.

{"columns": ["molecule", "IC50"],
 "data": [
  ["CC(=O)O[C@@H]1CC[C@H](CCCCCCCCCCCCC(C)O)N[C@@H]1C (stereo partly shown) [LASSBio-783]", "426 µM"],
  ["CC(=O)CCCCCCCCCCCC[C@H]1CC[C@@H](O)[C@@H](C)N1.Cl [LASSBio-768, Espectaline Chlorhydrate]", "236 µM"],
  ["CC(=O)CCCCCCCCCCCC[C@H]1CC[C@@H](OC(C)=O)[C@@H](C)N1.Cl [LASSBio-767]", "4.65 µM"]
]}

Input line: What value of IC50 has been reported for the following molecule? CC(=O)CCCCCCCCCCCC[C@H]1CC[C@@H](OC(=O)OC(C)(C)C)[C@@H](C)N1.Cl [LASSBio-822]
Output line: 15.1 µM

The measurements presented in this section are drawn from patent US8436020B2.
